System: HCT-116 colon
Experiment: NCI tumour cell line growth inhibition, 48 h
Quantity Kind: TGI (µM)

{"columns": ["Compound", "Value Units", "Qualifier Operator", "Data Value"],
 "data": [
  ["COc1ccc(C2=C(Cl)c3cc(OC)c(OC)cc3C2)cc1OC", "µM", ">", 100],
  ["Cc1ccc2c(=O)cc(Cc3csc4ccccc34)[nH]c2n1", "µM", ">", 100],
  ["OC(C1CCCCCCCCCC1)C(O)C1CCCCCCCCCC1 (stereo unspecified)", "µM", ">", 100],
  ["CCCCCCCCCCCC1=NC(C)(C)CN1CC(C)O (stereo unspecified)", "µM", "=", 4.9],
  ["CN(C)c1ccc(Nc2c3ccccc3nc3cc(NC(=O)CCN4CCCC4)ccc23)cc1", "µM", "=", 1.61],
  ["Nc1nccc2c1ccn2-c1cccc(NC(=O)c2ccc(N3CCOCC3)c(C(F)(F)F)c2)c1", "µM", "=", 8.66]
]}

---

System: LOX IMVI melanoma
Experiment: NCI tumour cell line growth inhibition, 48 h

{"columns": ["Compound", "TGI"],
 "data": [
  ["Fc1cccc(Cl)c1Cn1c(-c2c(F)cccc2Cl)nc2ccccc21", "42.2 µM"],
  ["CNC(=O)c1cc(Oc2ccc3nc(N[C@@H]4CCCC[C@H]4O)sc3c2)ccn1", "> 100 µM"],
  ["Cc1cc(NCc2cc(Nc3ccnc4cc(Cl)ccc34)ccc2F)nc(N2CCSCC2)n1", "2.79 µM"],
  ["CN(C)C=NCC(O)c1ccccc1 (stereo not given)", "> 100 µM"],
  ["CC1(C)CN=CC(C)(OCc2ccccc2)C(=O)NC(C)(C)CN=CC(C)(OCc2ccccc2)C(=O)N1 (stereo not given)", "> 10 µM"]
]}

---

Tested on: OVCAR-5 ovarian
Experiment: NCI tumour cell line growth inhibition, 48 h
Quantity Kind: TGI (µM)

{"columns": ["Compound", "Quantity Kind", "Qualifier Operator", "Data Value"],
 "data": [
  ["OC(C1CCCCCCCCCC1)C(O)C1CCCCCCCCCC1 (configuration not stated)", "TGI", ">", 100],
  ["CCOC(=O)c1ccccc1SC(C[N+](=O)[O-])c1ccccc1 (configuration not stated)", "TGI", "=", 25.3],
  ["Cc1cn([C@@H]2C[C@H](CO)[C@@H]2O)c(=O)[nH]c1=O", "TGI", ">", 100],
  ["COc1cc2c(c(OC)c1OC)-c1ccc(SC)c(=O)cc1[C@@H](NCc1cccc([N+](=O)[O-])c1)CC2", "TGI", ">", 100],
  ["CCCCCCCCCCCC1=NC(C)(C)CN1CC(C)O (configuration not stated)", "TGI", "=", 24.8],
  ["CS(=O)(=O)OCC1CCCCCCCCCCC12SCCCS2 (configuration not stated)", "TGI", ">", 100],
  ["O=C1/C(=C/c2ccc(Cl)cc2)CCC1CN1CCOCC1 (configuration not stated)", "TGI", "=", 45.7]
]}

---

Tested on: OVCAR-8 ovarian
Assay: NCI tumour cell line growth inhibition, 48 h
Quantity Kind: GI50

{"columns": ["Compound", "Tested System", "Quantity Kind", "Data Value"],
 "data": [
  ["OCCn1cc(-c2cnc3nnn(Cc4ccc5ncccc5c4)c3n2)cn1", "OVCAR-8 ovarian", "GI50", "> 100 µM"],
  ["Nc1nccc2c1ccn2-c1cccc(NC(=O)c2ccc(N3CCOCC3)c(C(F)(F)F)c2)c1", "OVCAR-8 ovarian", "GI50", "1.34 µM"],
  ["COc1ccc(C(=O)/C=C/c2cc(-c3ccc4c(c3)OCO4)n[nH]2)cc1OC", "OVCAR-8 ovarian", "GI50", "2.15 µM"],
  ["Fc1cccc(Cl)c1Cn1c(-c2c(F)cccc2Cl)nc2ccccc21", "OVCAR-8 ovarian", "GI50", "17.3 µM"],
  ["CCOC(=O)c1ccccc1SC(C[N+](=O)[O-])c1ccccc1 (stereo not given)", "OVCAR-8 ovarian", "GI50", "10.5 µM"]
]}

---

System: SR leukemia
Assay: NCI tumour cell line growth inhibition, 48 h; in the data active means GI50 below about 0.43 µM; inactive means the rest
Classes used: t for active, f for inactive

{"columns": ["Chemical String", "Group Label"],
 "data": [
  ["CN(C)c1ccc(Nc2c3ccccc3nc3cc(NC(=O)CCN4CCCC4)ccc23)cc1", "t"],
  ["O=C(c1ccco1)c1nc2cc(C(F)(F)F)ccc2[n+]([O-])c1C(F)(F)F", "f"],
  ["Cc1ccc2nc3c(n2c1)C(=O)C(=O)c1ccccc1-3", "t"],
  ["OCCn1cc(-c2cnc3nnn(Cc4ccc5ncccc5c4)c3n2)cn1", "f"],
  ["CC(C)C[CH2][Ge]([CH2]CC(C)C)([CH2]CC(C)C)[CH2]CC(C)C", "f"]
]}

---

Tested on: SNB-78 CNS
Experiment: NCI tumour cell line growth inhibition, 48 h
Below, each entry is listed alongside its reported TGI.

{"columns": ["Compound", "TGI"],
 "data": [
  ["O=NN1C(c2ccccc2)CCCC1c1ccccc1 (centres undefined)", "> 100 µM"],
  ["CCOC(OCC)C(CC)[Se]c1ccccc1 (centres undefined)", "> 100 µM"],
  ["CCOc1ccc(NCC2CC/C(=C\\c3ccc(Cl)cc3)C2=O)cc1 (centres undefined)", "> 100 µM"],
  ["CN(C)C(=S)/N=c1\\ss/c(=N\\C(=S)N(C)C)n1Cc1ccco1", "> 100 µM"],
  ["CC(O)C(NC(=O)c1ccccc1)C(=O)N(Cc1ccccc1)Cc1ccccc1 (centres undefined)", "> 100 µM"],
  ["O=C1/C(=C/c2ccc(Cl)c(Cl)c2)CNC/C1=C\\c1ccc(Cl)c(Cl)c1", "> 100 µM"],
  ["O=C(c1ccccc1O)c1cc(-c2ncc3c(=O)c4ccccc4oc3n2)c(-c2ccccc2O)[nH]c1=O", "> 88.1 µM"],
  ["CCCCCCCCCCCCCCCC(=O)OCC1OC(OC)C(NC(=O)N(CCCl)N=O)C(O)C1O (centres undefined)", "> 85.5 µM"],
  ["CC1=NN(C(=O)Cc2ccccc2)C(=O)/C1=C\\c1ccccc1O", "> 100 µM"],
  ["Cc1ccc(C#CS(=O)(=O)C(F)(F)F)cc1", "> 100 µM"],
  ["CC(C)CN1CC(C)C(=O)NC1=O (centres undefined)", "> 100 µM"],
  ["NC(CCc1ncc(-c2ccccc2)s1)C(=O)O (centres undefined)", "> 100 µM"],
  ["COc1cc2c(c(OC)c1OC)-c1ccc(SC)c(=O)cc1[C@@H](NCc1cccc([N+](=O)[O-])c1)CC2", "> 100 µM"],
  ["ClC1c2ccccc2C2(c3ccccc3)OOC1(c1ccccc1)O2 (centres undefined)", "3.19 µM"]
]}

---

This section presents molecules with their documented TGI values.
System: HT29 colon
Experiment: NCI tumour cell line growth inhibition, 48 h
Quantity Kind: TGI (µM)

{"columns": ["Molecule", "Quantity Kind", "Qualifier Operator", "Data Value"],
 "data": [
  ["CC(C)=CC(=O)N[C@@H]1CC2CCC3C(CC[C@@]4(C)C3CC[C@@H]4C(C)N(C)C)[C@@]2(C)C[C@@H]1O (stereo partly specified)", "TGI", "=", 2.92],
  ["CN(C)c1ccc(Nc2c3ccccc3nc3cc(NC(=O)CCN4CCCC4)ccc23)cc1", "TGI", "=", 2.06],
  ["CNC(=O)c1cc(Oc2ccc3nc(N[C@@H]4CCCC[C@H]4O)sc3c2)ccn1", "TGI", ">", 100],
  ["COc1ccc(C2=C(Cl)c3cc(OC)c(OC)cc3C2)cc1OC", "TGI", ">", 100],
  ["C[C@]12CC[C@H](O)CC1=CC[C@@H]1[C@@H]2CC[C@]2(C)C(=O)/C(=C/c3ccc([N+](=O)[O-])cc3)C[C@@H]12", "TGI", ">", 100],
  ["COc1cnc2c(c1)C(=O)c1c-2n(CCCNCCN2CCOCC2)c(=O)c2cc([N+](=O)[O-])ccc12", "TGI", "=", 1.31],
  ["COc1cc(-c2nc(-c3ccc(-c4nc5ccc(F)cc5[nH]4)cc3)no2)cc(OC)c1OC", "TGI", "=", 17.7],
  ["CN1CCN(c2ccc3nc(-c4[nH]ncc4Nc4ncnc5c4OCCCN5)[nH]c3c2)CC1", "TGI", "=", 0.1],
  ["CN(C(=O)C12C3C4C1C1C2C3C41C(O)C(C)(C)C)C(C)(C)C (stereo unspecified)", "TGI", ">", 100],
  ["CCOC(=O)c1ccc(N(C=O)CCC(=O)CCl)cc1", "TGI", "=", 1.18],
  ["O=C(Cc1csc2nc(-c3ccc(Br)cc3)cn12)N/N=C/c1ccc(Cl)cc1Cl", "TGI", ">", 100],
  ["O=NN1C(c2ccccc2)CCCC1c1ccccc1 (stereo unspecified)", "TGI", ">", 54.8],
  ["C=C1CCC2C(C)(CO)C(O)CCC2(C)C1C/C=C1/CCOC1=O (stereo unspecified)", "TGI", ">", 100],
  ["Fc1cccc(Cl)c1Cn1c(-c2c(F)cccc2Cl)nc2ccccc21", "TGI", ">", 100],
  ["Clc1ccc2nc(Cl)c3ccccc3c2c1", "TGI", ">", 100],
  ["O=c1[nH]c(=O)n(COCc2ccccc2)c2ccccc12", "TGI", ">", 100],
  ["O=C(Cc1ccc(Nc2ccnc(C(F)(F)F)c2)cc1)Nc1cc(Cl)ccc1O", "TGI", "=", 53.5],
  ["O=C(Nc1ccc(Nc2ccncc2)cc1)c1ccc(Nc2ccnc3ccc([N+](=O)[O-])cc23)cc1[N+](=O)[O-]", "TGI", ">", 100],
  ["CC(C)C1=C(Cc2ccccc2)C(=O)O/C1=C\\c1ccc(O)c(Cl)c1", "TGI", "=", 32.8],
  ["Nc1nccc2c1ccn2-c1cccc(NC(=O)c2ccc(N3CCOCC3)c(C(F)(F)F)c2)c1", "TGI", "=", 1.45],
  ["NCCS(=O)(=O)O", "TGI", ">", 100]
]}
